Ref: PubChem BioAssay (NCI)

As shown below, each of these compounds has a reported TGI value.
- Tested on: OVCAR-4 ovarian
- procedure.details: NCI tumour cell line growth inhibition, 48 h

| compound | TGI |
| --- | --- |
| COc1cc(OC)cc(C2C3=C(COC3=O)Nc3cc(OC)ccc32)c1 (centres undefined) | 37.6 µM |
| CC(=O)OCC1OC(n2c(C)c(C)c(C)c(C#N)c2=S)C(OC(C)=O)C(OC(C)=O)C1OC(C)=O (centres undefined) | > 100 µM |
| COC(=O)c1c(-c2cccs2)oc(-c2cccs2)c1C(=O)OC | > 100 µM |
| O=C(NC(=O)c1c(Cl)nc2sccn12)Nc1ccc(Cl)cc1 | > 100 µM |
| CCCCCCCC1(c2ccc(N)cc2)CCC(=O)NC1=O (centres undefined) | > 100 µM |
| Cc1ccc2nc(NC(=O)C(=O)C(C#N)c3ccc(Cl)cc3)sc2c1 (centres undefined) | > 50 µM |
| Oc1ccc(Oc2cc3c(cc2Oc2ccc(O)cc2)-c2nc-3nc3[nH]c(nc4nc(nc5[nH]c(n2)c2cc(Oc6ccc(O)cc6)c(Oc6ccc(O)cc6)cc52)-c2cc(Oc5ccc(O)cc5)c(Oc5ccc(O)cc5)cc2-4)c2cc(Oc4ccc(O)cc4)c(Oc4ccc(O)cc4)cc32)cc1 | > 100 µM |
| CCOC(=O)C1=C(O)c2ccc(C)cc2C(=O)C1=O | > 100 µM |
| O=C(Nc1ccccc1I(=O)=O)C1CCCCC1 | > 100 µM |
